Tested On: gastric histamine H2 receptors (Rattus norvegicus, UniProt P25102)
Construct: the gastric secretion is measured by perfusion of a physiological solution at a constant speed in the stomach of the animal; from tissue; host or cells: stomach of the living rat (in vivo, intravenous histamine infusion)
Sequence (P25102 whole entry, the tested form may be a part): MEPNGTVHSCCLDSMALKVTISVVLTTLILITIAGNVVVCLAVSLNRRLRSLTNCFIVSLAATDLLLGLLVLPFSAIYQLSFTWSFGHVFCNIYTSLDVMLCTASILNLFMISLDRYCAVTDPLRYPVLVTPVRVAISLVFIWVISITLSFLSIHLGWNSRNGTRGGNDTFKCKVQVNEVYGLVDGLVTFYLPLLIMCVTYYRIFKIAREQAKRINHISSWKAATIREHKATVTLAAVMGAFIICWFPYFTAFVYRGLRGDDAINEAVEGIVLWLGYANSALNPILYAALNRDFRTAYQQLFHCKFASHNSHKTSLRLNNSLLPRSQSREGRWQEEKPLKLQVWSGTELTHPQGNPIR
Assay Info: antisecretory activity: antagonism of histamine-induced gastric acid hypersecretion in rat (Ghosh and Schild)
Type: in vivo
Run Parameters: rat; intravenous route, single administration; histamine infusion 15 mcmol/kg/hour; read-out: ID50 (dose which inhibits by 50% the gastric hypersecretion induced by histamine)
So basically, if ED50 comes in under 0.9 µmol/kg it's Fulfilled, and if it's 0.9 µmol/kg or more it's Not fulfilled.

>>> print(df.to_string())
                                   compound  discrete_label
0  CN(C)Cc1ccc(CSCCNC(=O)c2cccc(NC(=O)c3cccs3)c2)o1   Not fulfilled
1  CN(C)Cc1ccc(CSCCNC(=O)c2cccc(NC(=O)c3ccc[n+]([O-])c3)c2)o1       Fulfilled
2  CCCCS(=O)(=O)Nc1cccc(C(=O)NCCSCc2ccc(CN(C)C)o2)c1       Fulfilled
3  CN(C)Cc1ccc(CSCCNC(=O)c2cccc(NS(=O)(=O)c3cccnc3)c2)o1   Not fulfilled
4  CN(C)Cc1ccc(CSCCNC(=O)c2cccc(NS(=O)(=O)c3cccs3)c2)o1   Not fulfilled
5  CN(C)Cc1ccc(CSCCNC(=O)c2cccc(NS(C)(=O)=O)c2)o1   Not fulfilled
6  CN(C)Cc1ccc(CSCCNC(=O)c2ccc(S(N)(=O)=O)cc2)o1 [Compound A, reference compound]   Not fulfilled
